I'd be grateful if you could share measured PBM E-score for these entries.
study-system: Ste12 (UniProt P13574)
Sequence (P13574 whole entry): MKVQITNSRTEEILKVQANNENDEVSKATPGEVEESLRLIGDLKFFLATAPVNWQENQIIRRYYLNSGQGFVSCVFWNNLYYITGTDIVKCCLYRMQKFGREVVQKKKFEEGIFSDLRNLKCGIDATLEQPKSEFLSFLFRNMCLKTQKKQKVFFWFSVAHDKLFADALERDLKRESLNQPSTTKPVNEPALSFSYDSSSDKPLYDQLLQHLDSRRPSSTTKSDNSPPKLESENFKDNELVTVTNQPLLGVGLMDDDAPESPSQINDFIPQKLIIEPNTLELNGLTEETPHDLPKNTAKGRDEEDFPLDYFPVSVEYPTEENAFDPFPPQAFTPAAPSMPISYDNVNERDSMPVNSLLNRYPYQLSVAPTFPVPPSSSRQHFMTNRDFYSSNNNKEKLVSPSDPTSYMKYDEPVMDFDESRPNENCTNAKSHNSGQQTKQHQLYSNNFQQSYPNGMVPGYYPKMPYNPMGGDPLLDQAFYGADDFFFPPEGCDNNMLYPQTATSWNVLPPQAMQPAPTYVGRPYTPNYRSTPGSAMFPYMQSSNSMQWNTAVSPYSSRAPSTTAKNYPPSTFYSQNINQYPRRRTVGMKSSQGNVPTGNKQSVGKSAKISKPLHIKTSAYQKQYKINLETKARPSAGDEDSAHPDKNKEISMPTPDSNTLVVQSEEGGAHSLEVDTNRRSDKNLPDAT
method-notes: PBM E-score (8-mer binding enrichment) (E-score (-0.5 to 0.5)); higher = stronger / more preferred TF binding
condition-context: protein concentration: 200 nM; construct: GST-DNA-binding domain
The full ranking holds about 33,000 sequences; the median of “E-score (-0.5 to 0.5)” is about -0.01, and the highest 2% start at about 0.26. The entries come from a sample that favours the highest values as a whole.
Give the figure by itself; no unit, no explanation.

Query string: Find the recorded PBM E-score belonging to CACGTTTA and report it.
Result string: -0.00355

Query string: Name the reported PBM E-score value associated with the sequence GTGTGAAC
Result string: 0.169

Query string: # query: PBM E-score of entry AGATTATC
Result string: -0.0475

Query string: # query: PBM E-score of entry GATGAAAC
Result string: 0.494

Query string: I have this sequence here, CAAACTTA , and I need its recorded PBM E-score.
Result string: 0.276

Query string: So what does the record say about PBM E-score for AAGTGCAA ?
Result string: -0.0141

Query string: Which PBM E-score is reported for this sequence? CAACTGAA
Result string: 0.201

Query string: Entry under review: TGCTCACA . Reported PBM E-score?
Result string: -0.148

Query string: I am curious: what PBM E-score value has been reported for CACGTTTC ?
Result string: 0.285

Query string: Dear colleague, I am looking for the recorded PBM E-score of the following sequence: TAAACTAA
Result string: 0.148

Query string: Item CAAACTAA has what recorded PBM E-score?
Result string: 0.265

Query string: Entry CAAACTAC has what PBM E-score?
Result string: 0.0311

Query string: Consider the sequence AGACCACG and give its measured PBM E-score.
Result string: -0.255

Query string: Param item = AACGTGGT ; retrieve measured PBM E-score.
Result string: -0.0847

Query string: Can you share its PBM E-score? I mean this sequence: CACGTTAC
Result string: 0.0456

Query string: Which value of PBM E-score has been reported for CAATTTAG in the records?
Result string: 0.118

Query string: Consider the sequence CTGTGAAG and give its measured PBM E-score.
Result string: 0.00467

Query string: Dear colleague, I am looking for the recorded PBM E-score of the following sequence: CAAACTTC
Result string: 0.124

Query string: What PBM E-score value was documented for this sequence, GTGTGAGA ?
Result string: 0.0959

Query string: Data request, read-out PBM E-score, for CTGTGAAC
Result string: -0.0759

Query string: Could you tell me which PBM E-score is on file for AACGTTTC ?
Result string: 0.328

Query string: May I ask what PBM E-score has been recorded for AACGTTTA ?
Result string: 0.00807

====

study-system: Ste12 (UniProt P13574)
method-notes: PBM E-score (8-mer binding enrichment) (E-score (-0.5 to 0.5)); higher = stronger / more preferred TF binding
condition-context: protein concentration: 200 nM; construct: GST-DNA-binding domain
Over roughly 33,000 sequences, “E-score (-0.5 to 0.5)” has its median near -0.01; the highest 2% begin near 0.26. This is one part of a sample in which the highest values are shown more often than they occur.
test-readout: PBM E-score
// print number alone

Query string: Find the recorded PBM E-score belonging to TGAGACAA and report it.
Result string: 0.274

Query string: Need PBM E-score of AGATTTAA , thanks.
Result string: 0.0444

Query string: Which PBM E-score value is on record for ACGACTAT ?
Result string: -0.0677

Query string: Look at this sequence and give its reported PBM E-score. GACCATGC
Result string: -0.139

Query string: PBM E-score for ACCTTCTC ?
Result string: 0.0171

Query string: I am curious: what PBM E-score value has been reported for AAATTTAG ?
Result string: 0.169

Query string: Item under review: ATCCAATG . Reported PBM E-score?
Result string: -0.165

Query string: Sample GCACGCCA — what was its PBM E-score?
Result string: -0.201

Query string: Could you share which PBM E-score value was measured for CCGGGCAA ?
Result string: -0.0289

Query string: Fill blank: measured PBM E-score of the sequence AAGAATGA is ____.
Result string: 0.209

Query string: Form field: reported PBM E-score of CTTTCTTA
Result string: 0.0052

Query string: Record request: PBM E-score value, item GAAACATA
Result string: 0.433

Query string: Reported PBM E-score, sequence ATACTAGG : ____
Result string: 0.119

Query string: Look up PBM E-score for this sequence: TAAAAAGA
Result string: 0.248

Query string: Given the entry GAATTTAA , report its measured PBM E-score.
Result string: 0.0395

Query string: Recorded PBM E-score for CAAGTTCG , please?
Result string: -0.0514

Query string: Which PBM E-score reading was recorded for the sequence CTCAACGC ?
Result string: -0.0089

Query string: Param item = CCTATAGA ; retrieve measured PBM E-score.
Result string: 0.00311

Query string: Look up PBM E-score for this sequence: CCTGCAGG
Result string: -0.16

Query string: Any idea what PBM E-score was measured for CTAAAAAG ?
Result string: 0.218

Query string: Quick check: PBM E-score of GGACAGAA ?
Result string: 0.136

Query string: Item under review: ACCAGTCT . Reported PBM E-score?
Result string: -0.25

Query string: May I ask what PBM E-score has been recorded for CGTAAAGA ?
Result string: -0.0705

Query string: May I ask what PBM E-score has been recorded for CGCTAGTC ?
Result string: -0.27

Query string: Field request: PBM E-score | item: ACTTCCCT
Result string: -0.0919

Query string: Name the reported PBM E-score value associated with the sequence CTCAAACC
Result string: 0.0438

Query string: # lookup: PBM E-score of CGAGACAA
Result string: 0.0198

Query string: For CCAATCCG , what is its reported PBM E-score?
Result string: 0.281

Query string: What PBM E-score value was documented for this sequence, TAATTTAA ?
Result string: 0.3

Query string: Requested read-out: PBM E-score. Entry: AAATTTAC
Result string: 0.197

Query string: Need PBM E-score, item ATCAAACA
Result string: 0.27

Query string: Entry under review: CGAACGAC . Reported PBM E-score?
Result string: -0.034

Query string: Field request: PBM E-score | item: AAATGCAC
Result string: -0.00999

Query string: # get_value(readout='PBM E-score', item= TGCTTTAA )
Result string: 0.199

Query string: Please look up its PBM E-score: AAATTTGA
Result string: 0.123

Query string: What value of PBM E-score has been reported for the following sequence? ACATCCCC
Result string: 0.321

Query string: Quick check: PBM E-score of GTATGGAC ?
Result string: -0.0968

Query string: Which measured PBM E-score value corresponds to AACCAATC ?
Result string: 0.259

Query string: Tell me the measured PBM E-score of AATCAGAG , please.
Result string: 0.0937

Query string: May I ask what PBM E-score has been recorded for TACGCAAA ?
Result string: -0.0817

Query string: Report PBM E-score for CCATGAAG please.
Result string: -0.0229

Query string: What does the data say about its PBM E-score? Entry: CTAAAAAA
Result string: 0.278

Query string: Looking for the measured PBM E-score of AATGGGCT , can you help?
Result string: -0.092

Query string: Would you mind telling me what PBM E-score value was observed for ATCAAGCA ?
Result string: 0.0192

Query string: I would be grateful if you could share the reported PBM E-score for ATCCCTTG .
Result string: -0.0717

Query string: Entry AGTGATGC has what PBM E-score?
Result string: -0.099

Query string: PBM E-score lookup needed for CCCAAAGA , thanks.
Result string: 0.18

Query string: Consider the sequence shown here: ATAGACGC What is its recorded PBM E-score?
Result string: 0.0365

Query string: PBM E-score lookup needed for CACCATCG , thanks.
Result string: -0.197

Query string: Endpoint output: PBM E-score of GCGCGCGC . Value?
Result string: 0.353

Query string: Quick one: PBM E-score for ATGGACGG ?
Result string: -0.00997

Query string: PBM E-score lookup needed for CTAAAAGA , thanks.
Result string: 0.0876

Query string: Query: PBM E-score; subject: AAATTTAA
Result string: 0.289

Query string: What does the data say about its PBM E-score? Entry: CTGGTCGC
Result string: 0.0843

Query string: Look up PBM E-score: GACTCACA
Result string: -0.201

Query string: Which PBM E-score reading was recorded for the sequence TAATAAAA ?
Result string: 0.225

Query string: What value of PBM E-score has been recorded for this entry: GAAACATC
Result string: 0.355

Query string: Sample ACTCTGAA — what was its PBM E-score?
Result string: 0.177

Query string: I would be grateful if you could share the reported PBM E-score for GACCGATA .
Result string: -0.00126

Query string: # PBM E-score lookup, item CTCCAGAA
Result string: -0.152

Query string: Consider the sequence shown here: ACTAAGAG What is its recorded PBM E-score?
Result string: -0.0255

Query string: What does the data say about its PBM E-score? Entry: AGCCTCTG
Result string: -0.135

Query string: Bench note: what PBM E-score did CTTCTGCC show?
Result string: -0.122

Query string: Which PBM E-score value belongs to AACTCGCC ?
Result string: -0.0534

Query string: Please report the recorded PBM E-score for CAAACATC .
Result string: 0.192

Query string: Entry under review: AATCAGAA . Reported PBM E-score?
Result string: 0.27

Query string: Which PBM E-score value belongs to CCGCGCGA ?
Result string: 0.169

Query string: Using the record for CGAGCGCA , report its PBM E-score.
Result string: 0.0982

Query string: GET /values?readout=PBM E-score&item= CCCTTCAC
Result string: -0.0106

Query string: // PBM E-score lookup, key: AATCAATG
Result string: 0.0688

Query string: For TTAAAAAA , what is its reported PBM E-score?
Result string: 0.294

Query string: // returns reported PBM E-score for input AACAGCGC
Result string: -0.0225

Query string: // PBM E-score lookup, key: CCAATCCC
Result string: 0.104

Query string: Request the reported PBM E-score associated with GCAATCAA
Result string: 0.0398

Query string: I have this sequence here, CTTGTTCA , and I need its recorded PBM E-score.
Result string: -0.105

Query string: # query: PBM E-score of entry CCATCCCC
Result string: 0.0914

Query string: What PBM E-score value was documented for this sequence, ATCAAACC ?
Result string: 0.217

Query string: So what's the measured PBM E-score for this one? CTGTGGTA
Result string: -0.0102

Query string: Fill in: PBM E-score of CCCCAAGC is ___
Result string: 0.176

Query string: PBM E-score lookup needed for AGAAAGGA , thanks.
Result string: -0.0699

Query string: Data request, read-out PBM E-score, for ACGCGCGC
Result string: 0.122

Query string: What PBM E-score value was documented for this sequence, CTCAAACA ?
Result string: 0.341

Query string: What PBM E-score value was documented for this sequence, CCATGGCG ?
Result string: -0.0357

Query string: I have this sequence here, GGCTGCTA , and I need its recorded PBM E-score.
Result string: -0.037

Query string: Need PBM E-score of CCACAAGG , thanks.
Result string: -0.107

Query string: Could you tell me which PBM E-score is on file for CGGACCAA ?
Result string: -0.096

Query string: Given the sequence ATGTCTAA , what is its reported PBM E-score?
Result string: 0.0254

Query string: // PBM E-score lookup, key: ATTGGGCG
Result string: -0.00653

Query string: Which PBM E-score value is on record for ACAGTGCC ?
Result string: -0.0356

Query string: Need PBM E-score, item GTGGGCGA
Result string: -0.0639

Query string: Form field: reported PBM E-score of ATTCGCGA
Result string: 0.0844
